Examples of binders with documented t½ at pH 7.4 follow.
Assay Target: SARS-COV-2 RBD-MMH (SARS-COV-2 RBD extracellular domain with C-terminal myc-myc-hexahistidine tag) (SARS-CoV-2)
Give just the number in min; leave the unit off.

{"columns": ["Binder", "t½ at pH 7.4 / min"],
 "data": [
  ["mAb15157 (antibody, V domains shown) VH: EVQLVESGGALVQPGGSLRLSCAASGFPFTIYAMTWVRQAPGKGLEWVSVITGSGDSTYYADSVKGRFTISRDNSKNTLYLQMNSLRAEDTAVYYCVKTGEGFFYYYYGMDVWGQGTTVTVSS VL: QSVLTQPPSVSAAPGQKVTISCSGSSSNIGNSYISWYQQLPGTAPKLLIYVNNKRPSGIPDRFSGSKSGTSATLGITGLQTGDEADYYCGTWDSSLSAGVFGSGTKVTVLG", 2.9]
]}

Then this binder:
Which t½ at pH 7.4 value belongs to mAb14235 (antibody, V domains shown) VH: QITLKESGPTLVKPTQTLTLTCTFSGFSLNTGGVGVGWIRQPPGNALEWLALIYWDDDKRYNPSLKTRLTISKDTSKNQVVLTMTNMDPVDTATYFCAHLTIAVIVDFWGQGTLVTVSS VL: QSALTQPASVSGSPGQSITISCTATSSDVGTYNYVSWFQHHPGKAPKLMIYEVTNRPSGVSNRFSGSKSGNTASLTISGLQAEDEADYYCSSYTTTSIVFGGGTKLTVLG ?
7.8
